Measured pIC50 of individual entries
- TARGET ENTITY: hNav1.7 (Homo sapiens (Human), UniProt Q15858)
- Sequence (Q15858 other isoform, or with tags, fused parts or gaps): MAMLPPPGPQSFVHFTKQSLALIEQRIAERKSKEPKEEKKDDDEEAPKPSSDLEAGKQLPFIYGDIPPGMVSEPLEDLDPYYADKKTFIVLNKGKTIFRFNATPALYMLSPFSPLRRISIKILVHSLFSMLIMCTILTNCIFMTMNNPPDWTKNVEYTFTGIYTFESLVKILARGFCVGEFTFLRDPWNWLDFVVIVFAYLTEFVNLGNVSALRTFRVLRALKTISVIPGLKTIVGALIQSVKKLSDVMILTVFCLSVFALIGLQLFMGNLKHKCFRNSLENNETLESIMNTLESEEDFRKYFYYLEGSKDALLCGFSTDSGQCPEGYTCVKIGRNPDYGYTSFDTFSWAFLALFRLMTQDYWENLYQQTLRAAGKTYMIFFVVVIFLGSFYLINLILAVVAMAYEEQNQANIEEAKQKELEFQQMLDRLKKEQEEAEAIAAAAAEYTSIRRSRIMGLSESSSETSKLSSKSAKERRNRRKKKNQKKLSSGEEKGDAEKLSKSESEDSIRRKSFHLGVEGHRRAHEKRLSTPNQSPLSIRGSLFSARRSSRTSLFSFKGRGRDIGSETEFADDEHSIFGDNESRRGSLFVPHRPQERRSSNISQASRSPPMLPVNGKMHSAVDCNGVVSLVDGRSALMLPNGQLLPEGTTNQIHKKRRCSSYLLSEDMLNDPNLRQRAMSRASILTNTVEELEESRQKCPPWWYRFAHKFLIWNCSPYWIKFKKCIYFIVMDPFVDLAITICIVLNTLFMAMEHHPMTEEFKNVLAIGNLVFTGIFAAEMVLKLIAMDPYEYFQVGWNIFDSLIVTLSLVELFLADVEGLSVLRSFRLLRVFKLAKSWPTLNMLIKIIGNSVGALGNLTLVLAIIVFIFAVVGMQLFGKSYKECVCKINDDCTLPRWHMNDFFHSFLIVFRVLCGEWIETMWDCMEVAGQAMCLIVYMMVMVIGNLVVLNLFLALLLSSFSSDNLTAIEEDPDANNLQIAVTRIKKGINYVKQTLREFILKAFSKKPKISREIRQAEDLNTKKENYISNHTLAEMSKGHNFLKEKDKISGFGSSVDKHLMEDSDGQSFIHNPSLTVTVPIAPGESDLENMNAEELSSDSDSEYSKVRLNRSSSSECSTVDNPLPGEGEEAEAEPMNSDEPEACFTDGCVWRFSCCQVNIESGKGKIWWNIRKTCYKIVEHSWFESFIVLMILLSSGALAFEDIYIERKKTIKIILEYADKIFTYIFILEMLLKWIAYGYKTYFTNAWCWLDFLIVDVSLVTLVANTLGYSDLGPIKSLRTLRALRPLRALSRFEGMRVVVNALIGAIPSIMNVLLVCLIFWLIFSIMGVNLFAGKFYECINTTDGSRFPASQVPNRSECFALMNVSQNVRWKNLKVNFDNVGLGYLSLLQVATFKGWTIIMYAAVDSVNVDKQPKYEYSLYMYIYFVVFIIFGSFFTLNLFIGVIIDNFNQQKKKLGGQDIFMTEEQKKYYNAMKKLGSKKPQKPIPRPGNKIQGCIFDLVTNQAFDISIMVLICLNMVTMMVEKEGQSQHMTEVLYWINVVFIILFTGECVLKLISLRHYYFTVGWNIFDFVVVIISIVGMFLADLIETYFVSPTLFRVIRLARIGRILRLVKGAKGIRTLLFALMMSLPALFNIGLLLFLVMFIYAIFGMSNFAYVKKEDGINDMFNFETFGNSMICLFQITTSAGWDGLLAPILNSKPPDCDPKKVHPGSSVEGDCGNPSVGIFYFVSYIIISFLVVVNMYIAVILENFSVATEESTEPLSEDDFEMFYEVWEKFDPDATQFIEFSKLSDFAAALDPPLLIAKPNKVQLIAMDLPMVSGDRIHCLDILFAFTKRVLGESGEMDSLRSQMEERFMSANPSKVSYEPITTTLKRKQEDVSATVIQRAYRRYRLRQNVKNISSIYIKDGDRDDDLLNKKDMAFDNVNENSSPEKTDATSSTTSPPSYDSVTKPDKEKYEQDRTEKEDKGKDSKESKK
- Sequence (Q07699 19-218 partner): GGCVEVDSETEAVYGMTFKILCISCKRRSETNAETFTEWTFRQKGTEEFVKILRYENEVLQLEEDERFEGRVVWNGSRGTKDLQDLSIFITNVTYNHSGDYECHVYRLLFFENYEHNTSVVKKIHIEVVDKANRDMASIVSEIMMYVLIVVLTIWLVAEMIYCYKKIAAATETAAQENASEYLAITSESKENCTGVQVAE
- PROTOCOL DETAILS: Tritiated sulfonamide competitive binding to membranes from cells expressing hNav1.7 and the β1 subunit;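 note: displacement of the tritiated ligand from recombinant cell membranes, read by liquid scintillation counting of filter-bound radioactivity, nonspecific binding defined with 1 µM unlabelled compound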
- TEST PARAMETERS: 100 pM [3H]compound, 18 h, room temperature; inactivated state of NaV1.7 membrane binding; read-out: NaV1.7 Ligand Binding Assay (IC50)
Quick note: pIC50 means taking -log10 of the concentration in moles per liter.

Sample records with pIC50:
O=S(=O)(Nc1nnc2cc(COc3cc(Cl)cc(OC(F)(F)F)c3)c(C3CC3)cn12)C1CC1 [Example 97] ... 8.52
CC1(COc2cc3nnc(NS(=O)(=O)C4CC4)n3cc2C2CC2)CCN(Cc2cc(Cl)cc(Cl)c2)CC1 [Example 111] ... 8.10
CC1(C)[C@H]2CC[C@H](COc3cc4nnc(NS(C)(=O)=O)n4cc3C3CC3)[C@@H]1C2 [Example 28] ... 8.59
Cc1cc(Cl)cc(OCc2cc3nnc(NS(C)(=O)=O)n3cc2C2CC2)c1 [Example 47] ... 8.14
CS(=O)(=O)Nc1nnc2cc(OCC3(C(F)(F)F)CCCC3)c(C3CC3)cn12 [Example 37] ... 7.34

For record CS(=O)(=O)Nc1nnc2cc(COc3ccc(Cl)c(Cl)c3)c(Br)cn12 [Example 55] the listed pIC50 is 8.59

The compound CS(=O)(=O)Nc1nnc2cc(OC[C@@H]3C[C@H]4CC[C@@H](C3)N4C(c3ccccc3)c3ccccc3)c(C3CC3)cn12 [Example 123] showed pIC50 equal to 7.77

Given item CC1(COc2cc3nnc(NS(=O)(=O)C4CC4)n3cc2C2CC2)CCC(F)(F)CC1 [Example 53] , the value recorded as its pIC50 is 7.17

Data provenance is patent US9550775B2.
